tested on: Wolbachia pipientis; experiment: Anti-Wolbachia Cell-Based Screen; type: functional; design: scale not given: in the data most compounds retested in dose-response had high values; conditions: 5 µM
The campaign covered roughly 48,000 compounds. About 13,000 (27%) showed an effect of 50% or more. The list shows a part of the results.
Recorded Percent Effect for the following compounds
Your answer is read as %, so omit the unit and give the number.

In the examples that follow, each entry is paired with its recorded Percent Effect.
Compound	Quantitative Result
CS(=O)(=O)N1CCOC2(CCN(c3nccs3)CC2)c2ccccc21	-2.369
COc1cccc(CNC(=O)NC2(c3nc(C)no3)CCCCC2)c1	-3.756
Cn1c(Cn2ccnc2)nnc1C1CCN(C(=O)c2ccoc2)CC1	96.26

Quick one: Percent Effect of CN(CCO)Cc1nnc(C2CCN(C(=O)c3cccn3C)CC2)n1C ? -1.148

Endpoint output: Percent Effect of O=C(Nc1ccnc(OC2CCOC2)c1)c1cc(F)ccc1F (centres undefined) . Value? -0.1893

Entry Cc1cccc(-n2cnc(Cl)c2CO)c1 : reported Percent Effect = ? 116.1

For CCOCCS(=O)(=O)N(CC)Cc1ccc(Cl)s1 , what is its reported Percent Effect? -4.367

Value lookup for Percent Effect; key = Cc1ncsc1C(=O)N1CCc2[nH]nc(-c3ccc4c(c3)OCO4)c2C1 -9.39

====

tested on: Wolbachia pipientis; test: Anti-Wolbachia Cell-Based Screen; type: functional; design: scale not given: in the data most compounds retested in dose-response had high values; details: 5 µM
Out of some 48,000 compounds screened, about 13,000 (27%) showed an effect of 50% or more. The list shows a part of the results.
Listed below: Percent Effect values for each entry.
API: value field is a number in %; no unit string.

O=C(c1ccc2c(c1)COC2)N1CCC(Nc2cccnn2)CC1 2.056
Cc1cc(Br)c(O)c(-c2nc(N3CCCCC3)sc2C)c1 122.7
Cc1cc(Br)c(O)c(-c2nc(N3CCOCC3)sc2C)c1 133.3
O=C(c1cc[nH]n1)N1CCC(Nc2cccnn2)CC1 4.355
Oc1nnc(-c2ccccc2)c2sc(N3CCCCC3)nc12 -2.363

What measured Percent Effect goes with O=C(c1ccc2[nH]c(=O)[nH]c2c1)N1CCC(Nc2cccnn2)CC1 ? 102.4

Entry COc1cnc(N2CCCN(Cc3ccc(F)cc3)CC2)nc1 has what Percent Effect? 0.06599

I'd like to know its Percent Effect. The molecule in question is CC(=O)N1CCC(N2CCOC[C@H]2c2nc(-c3ccccc3)c[nH]2)CC1 -17.76

Name the reported Percent Effect value associated with the molecule CC(C)OCC(=O)N1CCCN(Cc2ccc(C#N)cc2)CC1 -9.345

Reported Percent Effect, molecule OC[C@H]1CN(Cc2c(Cl)cncc2Cl)C[C@H]1CN1CCCC1 : ____ -2.945

# input molecule: O=C(c1ccc2[nH]nnc2c1)N1CCC(Nc2cccnn2)CC1 ; wanted: its Percent Effect 101.2

====

Reported Percent Effect values for a set of molecules
test system: Wolbachia pipientis; experiment: Anti-Wolbachia Cell-Based Screen; type: functional; set-up: scale not given: in the data most compounds retested in dose-response had high values; conditions: 5 µM
The campaign covered roughly 48,000 compounds. About 13,000 (27%) showed an effect of 50% or more. This is one part of the list.
State the answer as a number, implicitly in %.

Look over these answered cases.
Molecule	Percent Effect (%)
CN1C(=O)CCC12CCCN(C(=O)c1ccoc1)C2 (configuration not stated)	1.769
O=S(=O)(N1CCCC1)N1CCc2sccc2C1	-2.678
CCO[C@H]1CO[C@@]2(CCCN(C(=O)c3ccc(OC)c(F)c3)C2)C1	-0.1252
Cc1cc(=O)[nH]c(NCCNC(=O)C(c2ccc(F)cc2)N(C)C)n1 (configuration not stated)	1.725
CC(C)NC[C@H]1COCc2nc3cccnc3n21	-0.2965

Moving on to another molecule below.
Request body: readout Percent Effect, system Wolbachia pipientis, query CC(C)c1nsc(N2CCc3sccc3C2)n1 . Return the value. -3.315

====

test system: Wolbachia pipientis; test: Anti-Wolbachia Cell-Based Screen; format: functional; design: scale not given: in the data most compounds retested in dose-response had high values; conditions: 5 µM
Hit rate of the full screen: of about 48,000 compounds, about 13,000 (27%) showed an effect of 50% or more. The list shows a part of the results.
Reported Percent Effect values are given for each entry in this list.
Answer with a number only, understood to be in %.

Compound	Percent Effect, %
O=C(C[S+]([O-])C1CCCC1)NCCOc1cccc(Cl)c1 (centres undefined)	-1.497
O=C(NCCCn1cccn1)C1(c2ccc(Br)cc2)CC1	-2.807
O=C(NCc1ccccc1)c1nnc2ccc(N3CCOCC3)cc2n1	4.321
COCCO[C@@H]1CCN(C(=O)c2ccc(C)o2)[C@@H]1Cc1cccnc1.O=C(O)C(F)(F)F	18.38
c1cnn(CCNCCCOc2ccc3c(c2)OCO3)c1	-9.966

Field request: Percent Effect | item: CC(C)(C)c1oc(C(N)=O)cc1CN1CCOC(C(F)(F)F)C1 (centres undefined) -3.878

Given COCCC(=O)N1CCC2(CCCN(Cc3cc(OC)ccc3F)C2)C1 (centres undefined) , state its recorded Percent Effect. -0.03102

Can you share its Percent Effect? I mean this compound: O=C(NCCCn1cccn1)C1(c2ccc(F)cc2)CC1 -8.161

====

test system: Wolbachia pipientis; experiment: Anti-Wolbachia Cell-Based Screen; type: functional; set-up: scale not given: in the data most compounds retested in dose-response had high values; settings: 5 µM
The whole screen tested about 48,000 compounds, of which about 13,000 (27%) showed an effect of 50% or more. Some of the results follow.
Reported Percent Effect is given for each of the following molecules.

Molecule	Measured Quantity	Result
COCC1CC2(CCN(C(=O)c3oc4ccccc4c3C)CC2)CO1 (stereo unspecified)	Percent Effect	-1.277%
CNC(=O)NCC1CCC2(CCN(C(=O)c3cccnc3)CC2)CO1.O=C(O)C(F)(F)F (stereo unspecified)	Percent Effect	102.7%
N#Cc1ccccc1CN1C[C@@H]2CC[C@H](C1)N(Cc1cscn1)C2=O	Percent Effect	-11.1%
COCC1CC2(CCN(C(=O)c3cncc(C)c3)CC2)CO1.O=C(O)C(F)(F)F (stereo unspecified)	Percent Effect	8.897%
CNC(=O)NCC1CCC2(CCN(c3ncccn3)CC2)CO1 (stereo unspecified)	Percent Effect	88.92%

For CC(C)NC(=O)C1CCC2(CCN(c3ncccn3)CC2)CO1 (stereo unspecified) , what is its reported Percent Effect? -6.885%

====

Here the recorded Percent Effect is given for each entry.
test system: Wolbachia pipientis; experiment: Anti-Wolbachia Cell-Based Screen; format: functional; parameters: scale not given: in the data most compounds retested in dose-response had high values; details: 5 µM
The whole screen tested about 48,000 compounds, of which about 13,000 (27%) showed an effect of 50% or more. The list shows a part of the results.
Just the number please, in %, no unit attached.

Example entries begin here.
Compound	Measured Quantity	Units Label	Quantitative Result
c1cc(-c2noc(-c3cc(C4CC4)on3)n2)cc(N2CCCCC2)n1	Percent Effect	%	-2.255
c1cc(-c2cnccn2)cc(-c2ccn(CCN3CCCC3)n2)c1	Percent Effect	%	1.985
c1cc(-c2cnccn2)cc(-c2ccn(CCN3CCCCC3)n2)c1	Percent Effect	%	11.58
Cc1cnc(N2C[C@H]3C[C@H](C(=O)N(C)C)[C@@H](C2)O3)nc1	Percent Effect	%	-7.121
COc1nc(C)c(C(=O)N(C)Cc2nc(-c3ccccn3)no2)s1	Percent Effect	%	6.707
Cn1cnc2c1CCN(Cc1cccc(OCC(N)=O)c1)C2	Percent Effect	%	-0.9151
CC(C)(C)c1cnc(CN2CCCS2(=O)=O)o1	Percent Effect	%	-7.665
Fc1ccc(OCC2CCCO2)c(NCc2cn3cccnc3n2)c1 (centres undefined)	Percent Effect	%	-2.31

Query for Wolbachia pipientis: what Percent Effect does the record show for Cc1cc(-n2cncn2)ccc1C(=O)N(CC(F)(F)F)C(C)C ? -3.659

Recorded Percent Effect for Cc1cnc(C(=O)Nc2cc(F)ccc2OCC2CCCO2)cn1 (centres undefined) with Wolbachia pipientis, please? -2.263

Quick check: Percent Effect on Wolbachia pipientis, item Cc1ccc(CNc2cnn(CC(F)F)c2)cc1C ? -20.79

// lookup Percent Effect | system=Wolbachia pipientis | key= CCc1nc(C)c(C(=O)N(C)Cc2cnn(-c3cccc(OC)c3)c2)s1 -4.854

Recorded Percent Effect for Cc1cc(C)n(CC2CCCN2CC(=O)N(C)Cc2cnn(C)c2)n1 (centres undefined) with Wolbachia pipientis, please? 3.257

Under Wolbachia pipientis: Percent Effect value of O=c1oc(-c2cccs2)nn1CC1(O)CCCCC1 ? -6.599

====

Item-by-item account of Percent Effect
tested on: Wolbachia pipientis; assay: Anti-Wolbachia Cell-Based Screen; format: functional; design: scale not given: in the data most compounds retested in dose-response had high values; details: 5 µM
About 13,000 (27%) of roughly 48,000 compounds showed an effect of 50% or more. This is one part of the list.
Form entry: value (%) — number only.

Molecule	Quantitative Result
Cc1ccccc1-c1noc(C2CC(C(C)C)=NO2)n1 (stereo unspecified)	10.38
CCCC(=O)N1CCC(Nc2nc(O)cc(-c3ccsc3)n2)CC1	101
CNS(=O)(=O)c1cccc(CNCc2ccsc2)c1	4.811
CC(C)Nc1nc2c(c(NC3CC3)n1)CN(C(=O)Cc1ccsc1)CC2	-13.92
CC(C)CC(=O)N1CCC(Nc2nc(O)cc(-c3ccsc3)n2)CC1	93.38
CCCC(=O)N1CCC(Nc2ncc(Br)cn2)CC1	-8.622
c1ccc(OCc2noc(CN3CCN(C4CCCC4)CC3)n2)cc1	4.136
O=C(O)C(F)(F)F.O=C(O)c1cc2c(nc1-c1ccsc1)CCN(C(=O)C1CC1)CC2	-4.061

Returns the measured Percent Effect for the input molecule. Input: CCc1nccn1CC(=O)N1C[C@H]2CC[C@@H]1CN(S(=O)(=O)N(C)C)C2 -7.287

Which measured Percent Effect value corresponds to O=C(Cn1cccn1)N1CCC(Cn2cc(-c3ccsc3)nn2)CC1 ? 4.923

May I ask what Percent Effect has been recorded for O=C(C1CCOC1)N1CCC(Cn2cc(-c3ccsc3)nn2)CC1 (stereo unspecified) ? -11.04
